Provenance of the data: patent US12370182B2

# System tested: human recombinant GABAA α5β3γ2 receptor (Homo sapiens (Human), UniProt P18507+P31644)
# Sequence (P31644 32-462): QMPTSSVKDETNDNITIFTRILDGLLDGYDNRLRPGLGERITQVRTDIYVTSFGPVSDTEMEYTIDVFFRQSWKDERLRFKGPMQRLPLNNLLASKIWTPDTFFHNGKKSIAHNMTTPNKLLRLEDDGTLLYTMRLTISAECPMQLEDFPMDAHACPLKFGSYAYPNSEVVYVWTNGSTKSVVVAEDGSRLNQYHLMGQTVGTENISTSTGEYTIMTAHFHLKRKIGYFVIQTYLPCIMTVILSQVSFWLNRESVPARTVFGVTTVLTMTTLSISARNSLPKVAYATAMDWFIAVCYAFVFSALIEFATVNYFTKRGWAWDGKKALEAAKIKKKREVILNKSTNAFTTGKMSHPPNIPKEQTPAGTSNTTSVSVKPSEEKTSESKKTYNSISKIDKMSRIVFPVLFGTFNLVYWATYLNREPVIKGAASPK
# Sequence (P28472 26-473 partner): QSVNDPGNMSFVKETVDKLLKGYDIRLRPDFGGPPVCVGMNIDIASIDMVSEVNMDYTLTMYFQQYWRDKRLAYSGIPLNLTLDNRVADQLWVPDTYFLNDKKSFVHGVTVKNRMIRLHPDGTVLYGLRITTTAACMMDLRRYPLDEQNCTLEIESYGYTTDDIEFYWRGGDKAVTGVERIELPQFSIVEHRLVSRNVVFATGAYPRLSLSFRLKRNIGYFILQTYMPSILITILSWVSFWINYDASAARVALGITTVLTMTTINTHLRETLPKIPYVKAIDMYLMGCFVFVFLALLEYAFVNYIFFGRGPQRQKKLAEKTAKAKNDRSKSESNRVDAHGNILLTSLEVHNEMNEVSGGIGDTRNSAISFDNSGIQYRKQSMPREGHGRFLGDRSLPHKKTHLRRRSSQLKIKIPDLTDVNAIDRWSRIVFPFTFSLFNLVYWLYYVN
# Sequence (P18507 40-475): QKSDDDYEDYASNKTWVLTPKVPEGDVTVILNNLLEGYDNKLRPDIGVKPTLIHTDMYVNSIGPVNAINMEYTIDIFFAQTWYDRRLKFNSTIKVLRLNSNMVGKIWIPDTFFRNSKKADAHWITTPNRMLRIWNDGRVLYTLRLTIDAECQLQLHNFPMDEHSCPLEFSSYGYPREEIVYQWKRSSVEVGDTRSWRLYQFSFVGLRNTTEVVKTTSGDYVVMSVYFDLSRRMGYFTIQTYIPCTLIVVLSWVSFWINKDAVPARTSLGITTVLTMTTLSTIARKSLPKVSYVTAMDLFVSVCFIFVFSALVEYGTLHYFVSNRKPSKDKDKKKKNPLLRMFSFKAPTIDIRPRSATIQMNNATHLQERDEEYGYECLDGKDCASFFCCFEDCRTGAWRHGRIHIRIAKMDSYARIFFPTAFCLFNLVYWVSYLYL
# Protocol notes: Functional assay, QPatch automated patch clamp, GABA-evoked currents
# Format: cell-based
# Measurement parameters: test compound 10 μM, 1 μM GABA, HEK293 cells, percentage modulation of peak current
Overview of reported hGABAA α5 efficacy across a group of compounds:
Experimental endpoint: hGABAA α5 efficacy (%)

[[record]]
compound = "Cc1nnn(-c2ccc(F)cc2)c1COc1ccc2c(n1)CN(C(=O)CC(C)C)C2"
endpoint_unit = "%"
test_value = "−40"

[[record]]
compound = "Cc1nnn(-c2ccc(F)cc2)c1COc1ccc2c(n1)CCN(C(=O)C1CCCO1)C2 (centres unmarked)"
endpoint_unit = "%"
test_value = "−43"

[[record]]
compound = "Cc1nnn(-c2ccc(F)cc2)c1COc1ccc2c(n1)CCN(C(=O)NC1CC(=O)N(C)C1)C2 (centres unmarked)"
endpoint_unit = "%"
test_value = "−35"

[[record]]
compound = "Cc1nnn(-c2ccc(F)cc2)c1COc1ccc2c(n1)CCN(C(=O)C1CCOCC1)C2"
endpoint_unit = "%"
test_value = "−40"

[[record]]
compound = "Cc1nnn(-c2ccc(F)cc2)c1COc1ccc2c(n1)CCN(C(=O)[C@@H]1CCOC1)C2"
endpoint_unit = "%"
test_value = "−37"

[[record]]
compound = "Cc1nnn(-c2ccc(F)cc2)c1COc1ccc2c(n1)CCN(C(=O)[C@H]1CCOC1)C2"
endpoint_unit = "%"
test_value = "−45"

[[record]]
compound = "Cc1nnn(-c2ccc(F)cc2)c1COc1ccc2c(n1)CCN(C(=O)C1CCOC1)C2 (centres unmarked)"
endpoint_unit = "%"
test_value = "−39"

[[record]]
compound = "Cc1onc(-c2ccc(F)cc2)c1COc1ccc2c(n1)CCN(C(=O)C1CCOC1)C2 (centres unmarked)"
endpoint_unit = "%"
test_value = "−40"

[[record]]
compound = "Cc1onc(-c2ccc(F)cc2)c1COc1ccc2c(n1)CCN(C(=O)C1CCS(=O)(=O)CC1)C2"
endpoint_unit = "%"
test_value = "−38"

[[record]]
compound = "Cc1nnn(-c2ccc(F)cc2)c1COc1ccc2c(n1)CN(C(=O)C1CCCO1)C2 (centres unmarked)"
endpoint_unit = "%"
test_value = "−41"

[[record]]
compound = "Cc1onc(-c2ccc(F)cc2)c1COc1ccc2c(n1)CCN(C(=O)CS(C)(=O)=O)C2"
endpoint_unit = "%"
test_value = "−39"


----------
# System tested: human recombinant GABAA α5β3γ2 receptor (Homo sapiens (Human), UniProt P18507+P31644)
# Protocol notes: Binding assay, [3H]Ro151788 displacement on membranes of HEK cells
# Measurement parameters: 0.5 nM [3H]Ro151788, 60 minutes at 4° C., Cheng-Prusoff; read-out: hGABAA α5 Ki
API: label(entry) gives Condition met if the entry's Ki is strictly smaller than 10 nM; on equality or larger values it gives Condition not met.

[[record]]
compound = "Cc1onc(-c2ccc(F)cc2)c1COc1ccc2c(n1)CCN(C(=O)C1CC(=O)N(C)C1)C2 (stereo not drawn) [Example 13]"
group_label = "Condition met"

[[record]]
compound = "Cc1nnn(-c2ccc(F)cc2)c1COc1ccc2c(n1)CCN(C(=O)C1(C)CCOC1)C2 (stereo not drawn) [Example 31]"
group_label = "Condition not met"

[[record]]
compound = "Cc1onc(-c2ccc(F)cc2)c1COc1ccc2c(n1)CCN(C(=O)N1CCCC1)C2 [Example 84]"
group_label = "Condition met"

[[record]]
compound = "Cc1nnn(-c2ccc(F)cc2)c1COc1ccc2c(n1)CCN(C(=O)C1CCCOC1)C2 (stereo not drawn) [Example 30]"
group_label = "Condition not met"

[[record]]
compound = "Cc1nnn(-c2ccc(F)cc2)c1COc1ccc2c(n1)CCN(C(=O)c1cccc(Cl)c1)C2 [Example 27]"
group_label = "Condition not met"

[[record]]
compound = "Cc1nnn(-c2ccc(Cl)cc2)c1COc1ccc2c(n1)CCN(C(=O)C1CCOCC1)C2 [Example 32]"
group_label = "Condition not met"

[[record]]
compound = "Cc1onc(-c2ccc(F)cc2)c1COc1ccc2c(n1)CCN(C(=O)N1CCOCC1)C2 [Example 82]"
group_label = "Condition met"

[[record]]
compound = "Cc1nnn(-c2ccc(Cl)cc2)c1COc1ccc2c(n1)CCN(C(=O)[C@H]1CCOC1)C2 [Example 38]"
group_label = "Condition not met"

[[record]]
compound = "Cc1onc(-c2ccc(F)cc2)c1COc1ccc2c(n1)CCN(C(=O)C1CCCO1)C2 (stereo not drawn) [Example 7]"
group_label = "Condition met"

[[record]]
compound = "Cc1nnn(-c2ccc(F)cc2)c1COc1ccc2c(n1)CCN(C(=O)c1ccno1)C2 [Example 20]"
group_label = "Condition not met"

[[record]]
compound = "CCC(=O)N1Cc2ccc(OCc3c(C)nnn3-c3ccc(F)cc3)nc2C1 [Example 52]"
group_label = "Condition not met"

[[record]]
compound = "Cc1nnn(-c2ccc(F)cc2)c1COc1ccc2c(n1)CCN(C(=O)NC1CC(=O)N(C)C1)C2 (stereo not drawn) [Example 75]"
group_label = "Condition not met"

[[record]]
compound = "Cc1nnn(-c2ccc(F)cc2)c1COc1ccc2c(n1)CCN(C(=O)NC1CCOC1)C2 (stereo not drawn) [Example 78]"
group_label = "Condition not met"

[[record]]
compound = "Cc1nnn(-c2ccc(F)cc2)c1COc1ccc2c(n1)CN(C(=O)C1CC1)C2 [Example 47]"
group_label = "Condition met"

[[record]]
compound = "Cc1onc(-c2ccc(F)cc2)c1COc1ccc2c(n1)CN(C(=O)CS(C)(=O)=O)C2 [Example 49]"
group_label = "Condition met"

[[record]]
compound = "Cc1nnn(-c2ccc(F)cc2)c1COc1ccc2c(n1)CCN(C(=O)C1CCS(=O)(=O)CC1)C2 [Example 23]"
group_label = "Condition not met"

[[record]]
compound = "Cc1nnn(-c2ccc(F)cc2)c1COc1ccc2c(n1)CN(C(=O)c1ccccn1)C2 [Example 66]"
group_label = "Condition not met"

[[record]]
compound = "CC(=O)N1Cc2ccc(OCc3c(-c4ccc(F)cc4)noc3C)nc2C1 [Example 50]"
group_label = "Condition met"

[[record]]
compound = "Cc1nnn(-c2ccc(F)cc2)c1COc1ccc2c(n1)CCN(C(=O)Nc1ccc(Cl)cc1)C2 [Example 81]"
group_label = "Condition not met"

[[record]]
compound = "Cc1onc(-c2ccc(F)cc2)c1COc1ccc2c(n1)CCN(C(=O)NC1CCOC1)C2 (stereo not drawn) [Example 86]"
group_label = "Condition met"

[[record]]
compound = "Cc1nnn(-c2ccc(F)cc2)c1COc1ccc2c(n1)CCN(C(=O)C1CCCO1)C2 (stereo not drawn) [Example 15]"
group_label = "Condition not met"

[[record]]
compound = "Cc1nnn(-c2ccc(F)cc2)c1COc1ccc2c(n1)CCN(C(=O)[C@@H]1CCC(=O)N1C)C2 [Example 40]"
group_label = "Condition not met"

[[record]]
compound = "Cn1nnc(-c2ccc(F)cc2)c1COc1ccc2c(n1)CN(C(=O)C1CCCOC1)C2 (stereo not drawn) [Example 74]"
group_label = "Condition not met"

[[record]]
compound = "CC(C)C(=O)N1Cc2ccc(OCc3c(-c4ccc(F)cc4)nnn3C)nc2C1 [Example 72]"
group_label = "Condition not met"

[[record]]
compound = "Cc1nnn(-c2ccc(F)cc2)c1COc1ccc2c(n1)CCN(C(=O)C1CC1)C2 [Example 19]"
group_label = "Condition not met"

[[record]]
compound = "Cc1nnn(-c2ccc(F)cc2)c1COc1ccc2c(n1)CCN(C(=O)[C@@H]1CCOC1)C2 [Example 17]"
group_label = "Condition not met"

[[record]]
compound = "Cc1nnn(-c2ccc(F)cc2)c1COc1ccc2c(n1)CCN(C(=O)c1ccncc1)C2 [Example 25]"
group_label = "Condition not met"

[[record]]
compound = "Cc1onc(-c2ccc(F)cc2)c1COc1ccc2c(n1)CCN(C(=O)N(C)C)C2 [Example 83]"
group_label = "Condition met"

[[record]]
compound = "Cc1nnn(-c2ccc(F)cc2)c1COc1ccc2c(n1)CN(C(=O)CC(C)C)C2 [Example 56]"
group_label = "Condition not met"

[[record]]
compound = "Cc1nnn(-c2ccc(F)cc2)c1COc1ccc2c(n1)CN(C(=O)C1CCC1)C2 [Example 57]"
group_label = "Condition not met"

[[record]]
compound = "Cc1nnn(-c2ccc(F)cc2)c1COc1ccc2c(n1)CN(C(=O)C1CCCOC1)C2 (stereo not drawn) [Example 63]"
group_label = "Condition met"

[[record]]
compound = "CC(=O)N1CCc2nc(OCc3c(C)nnn3-c3ccc(F)cc3)ccc2C1 [Example 14]"
group_label = "Condition not met"

